B1: tRNA (parent)
chain: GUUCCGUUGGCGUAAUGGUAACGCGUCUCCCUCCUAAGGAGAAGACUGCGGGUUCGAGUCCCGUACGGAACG

# Variants of: B1
# PROTOCOL DETAILS: yeast fitness relative to wild type (ratio to wild type); higher = fitter; tRNA-Arg(CCU), competitive growth, 37 C, YPD
Variants at the floor of the assay were thinned out.
yeast fitness by entry:
Could you respond with only the numeric value?

Would you kindly share the measured yeast fitness for C22U C33U C34A G38C G52A ?
0.601

// same read-out, input: U59A U64G
0.52

// same read-out, input: A57C U59C
0.613

***
Would you kindly share the measured yeast fitness for U2A A20U ?
0.732

// same read-out, input: C4A C22U C30A
0.504
